target: BCL2 WT (Homo sapiens (Human), UniProt P10415); assay: TR-FRET competitive binding assay, BCL2 WT; conditions: Ki determined from IC50, read-out: TR_FRET EKI_Bcl2 WT
Sequence (P10415 other isoform, or with tags, fused parts or gaps): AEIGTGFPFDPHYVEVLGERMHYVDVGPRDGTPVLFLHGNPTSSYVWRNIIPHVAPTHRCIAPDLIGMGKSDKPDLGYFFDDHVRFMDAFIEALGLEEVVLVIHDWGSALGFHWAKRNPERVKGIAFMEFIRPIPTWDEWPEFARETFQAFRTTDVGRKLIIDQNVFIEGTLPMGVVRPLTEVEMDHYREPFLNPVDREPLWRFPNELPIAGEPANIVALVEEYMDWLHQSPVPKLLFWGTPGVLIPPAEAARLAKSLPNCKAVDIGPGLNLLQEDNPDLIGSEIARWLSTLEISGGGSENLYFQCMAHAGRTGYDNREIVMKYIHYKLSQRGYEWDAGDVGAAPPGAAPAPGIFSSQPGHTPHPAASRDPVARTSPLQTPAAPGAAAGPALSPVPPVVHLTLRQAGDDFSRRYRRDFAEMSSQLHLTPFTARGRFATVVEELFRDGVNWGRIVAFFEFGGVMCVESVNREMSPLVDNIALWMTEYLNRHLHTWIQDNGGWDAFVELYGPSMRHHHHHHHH
Property name: log10(Ki) (log10 of the value in nM)

Smiles string	log10(Ki)
Cc1c(N(C(=O)c2cc(-c3cc4c(cc3C(=O)N3Cc5ccccc5C[C@H]3C)CN(C(=O)Cc3ccc(N5CCN6CC(F)(F)C[C@H]6C5)cc3F)CC4)n(C)c2C)c2ccc(O)cc2)cc(C#N)n1C	-0.17
Cc1c(N(C(=O)c2cc(-c3cc4c(cc3C(=O)N3Cc5ccccc5C[C@H]3C)CN(C(=O)Cc3ccc(OCCN5CCSCC5)cc3)CC4)n(C)c2C)c2ccc(O)cc2)cc(C#N)n1C	-1.00
Cc1c(N(C(=O)c2cc(-c3cc4c(cc3C(=O)N3Cc5ccccc5C[C@H]3CN3CCC(F)CC3)CN(C(=O)Cc3ccc(OCCN5CCOCC5)cc3F)CC4)n(C)c2C)c2ccc(O)cc2)cc(C#N)n1C	-0.89
Cc1c(N(C(=O)c2cc(-c3cc4c(cc3C(=O)N3Cc5ccccc5C[C@H]3CN3CCCCC3)CN(C(=O)Cc3ccc(OCCN5CCOC[C@H]5C)cc3F)CC4)n(C)c2C)c2ccc(O)cc2)cc(C#N)n1C	-1.40
Cc1cc(OCCN2CCOCC2)ccc1CC(=O)N1CCc2cc(-c3cc(C(=O)N(c4ccc(O)cc4)c4cc(C#N)n(C)c4C)c(C)n3C)c(C(=O)N3Cc4ccccc4C[C@H]3CN3CCCCC3)cc2C1	-1.30
Cc1c(C(=O)N(c2ccc(O)cc2)c2ccc3c(cnn3C)c2)cc(-c2cc3c(cc2C(=O)N2Cc4ccccc4C[C@H]2C)CN(C(=O)Cc2ccc(OCCN4CCOCC4)cc2)CC3)n1C	-0.60
Cc1c(N(C(=O)c2cc(-c3cc4c(cc3C(=O)N3Cc5ccccc5C[C@H]3CN3CC5(CC5)C3)CN(C(=O)Cc3ccc(OCCN5CCOCC5)cc3F)CC4)n(C)c2C)c2ccc(O)cc2)cc(C#N)n1C	-1.52
Cc1c(C(=O)N(c2ccc(O)cc2)c2cnn3c2CCCC3)cc(-c2cc3c(cc2C(=O)N2Cc4ccccc4C[C@H]2C)CN(C(=O)Cc2ccc(OCCN4CCOCC4)cc2)CC3)n1C	-1.22
Cc1nn(C)cc1N(C(=O)c1cc(-c2cc3c(cc2C(=O)N2Cc4ccccc4C[C@H]2C)CN(C(=O)Cc2ccc(OCCN4CCOCC4)cc2F)CC3)n(C)c1C)c1ccccc1	-1.52
Cc1c(C(=O)N(c2ccccc2)c2cnn(C)c2)cc(-c2cc3c(cc2C(=O)N2Cc4ccccc4C[C@H]2C)CN(C(=O)Cc2ccc(OCCN4CCOCC4)cc2)CC3)n1C	-1.52

These measurements were taken from patent US20250179047A1.
